Source: ChEMBL document CHEMBL1914447

- Experiment Description: Lipophilicity, log D of the compound by gradient HPLC at pH 3.0
- Type: physicochemical
- Measurement Parameters: buffer
Experimental Endpoint: chromatographic logD

What does the data say about its chromatographic logD? Entry: CC(=O)NCc1csc(NC(=O)c2cc(C(C)(C)C)nn2Cc2ccccc2)n1
3.3

Try this molecule too: NCc1csc(NC(=O)c2cn(Cc3ccccc3)nn2)n1
1.1

Now the same for CN(C)Cc1csc(NC(=O)c2cc(C(C)(C)C)nn2Cc2ccccc2)n1
2.6

Record: NCc1csc(NC(=O)c2cc3ccccc3n2Cc2ccccc2)n1
2.4

Try this molecule next: NCc1csc(NC(=O)c2ncccn2)n1
-0.2

----------
- Test System: UniProt Q12809
- Sequence (Q12809 whole entry): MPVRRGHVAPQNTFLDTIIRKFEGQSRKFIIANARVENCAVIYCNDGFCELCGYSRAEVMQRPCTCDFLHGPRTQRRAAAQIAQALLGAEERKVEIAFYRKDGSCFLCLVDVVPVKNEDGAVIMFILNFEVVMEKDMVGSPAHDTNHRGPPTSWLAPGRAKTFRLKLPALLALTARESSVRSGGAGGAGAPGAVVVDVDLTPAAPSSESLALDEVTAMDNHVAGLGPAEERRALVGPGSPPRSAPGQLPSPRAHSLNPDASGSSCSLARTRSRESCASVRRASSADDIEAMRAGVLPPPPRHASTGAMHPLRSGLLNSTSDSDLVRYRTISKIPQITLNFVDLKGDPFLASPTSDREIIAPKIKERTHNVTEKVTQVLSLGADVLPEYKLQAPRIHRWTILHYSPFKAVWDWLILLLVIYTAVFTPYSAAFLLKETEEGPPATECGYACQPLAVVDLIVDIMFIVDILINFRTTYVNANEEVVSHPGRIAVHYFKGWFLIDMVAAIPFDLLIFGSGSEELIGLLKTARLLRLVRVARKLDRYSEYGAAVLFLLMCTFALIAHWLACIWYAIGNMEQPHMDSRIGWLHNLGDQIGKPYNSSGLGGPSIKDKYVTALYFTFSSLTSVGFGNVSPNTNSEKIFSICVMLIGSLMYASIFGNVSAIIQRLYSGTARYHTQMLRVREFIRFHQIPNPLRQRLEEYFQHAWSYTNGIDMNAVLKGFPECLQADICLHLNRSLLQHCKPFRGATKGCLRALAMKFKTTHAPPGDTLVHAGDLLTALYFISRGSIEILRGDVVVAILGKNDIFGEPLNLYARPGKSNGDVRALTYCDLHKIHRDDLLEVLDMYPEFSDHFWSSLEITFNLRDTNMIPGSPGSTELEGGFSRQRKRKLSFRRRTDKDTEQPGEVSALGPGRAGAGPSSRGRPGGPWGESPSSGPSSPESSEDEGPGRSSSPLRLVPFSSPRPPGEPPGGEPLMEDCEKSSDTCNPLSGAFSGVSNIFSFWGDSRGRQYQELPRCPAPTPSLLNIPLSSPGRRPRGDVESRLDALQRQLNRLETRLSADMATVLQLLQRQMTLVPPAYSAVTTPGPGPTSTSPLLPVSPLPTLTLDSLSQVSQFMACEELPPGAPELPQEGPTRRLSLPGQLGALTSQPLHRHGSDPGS
- Experiment Description: Inhibition of human ERG expressed in Chinese hamster CHL cells by perforated patch clamp assay
- Assay type: cell-based
Experimental Endpoint: pIC50
FYI, pIC50 means -log10 of a concentration in mol per litre.

Field request: pIC50 | item: CC(C)(C)c1cc(C(=O)Nc2nc(CN)cs2)n(Cc2ccccc2)n1
5.43

----------
- Experiment Description: Kinetic solubility of the compound by nephelometry at pH 6.5
- Type: physicochemical
- Measurement Parameters: buffer, read-out: Kinetic_solubility
Some compounds, each annotated with its measured solubility kinetic.
# unit: µg/mL | format: bare number

For CC(C)(C)c1cc(C(=O)Nc2ccccn2)n(Cc2ccccc2)n1 , what is its reported solubility kinetic?
6.3

***
// query solubility kinetic value for entry CC(C)(C)c1cc(C(=O)Nc2nc(CO)cs2)n(Cc2ccccc2)n1
3.1

----------
- Experiment Description: Tmax in Sprague-Dawley rat at 21.8 mg/kg, po by LCMS analysis
- Type: ADME, organism-based
- Design: dose 21.8 mg/kg, route oral
- Measurement Parameters: in vivo
Experimental Endpoint: Tmax (h)
Dear colleague, please return just the value in h, with no unit written.

GET /values?readout=Tmax&item= CC(C)(C)c1cc(C(=O)Nc2nc(CN)cs2)n(Cc2ccccc2)n1
3.25

----------
- Test System: CYP3A4/5 (Homo sapiens, UniProt P08684+P20815)
- Experiment Description: Inhibition of CYP3A4/5-mediated midazolam 1'-hydroxylation in human liver microsomes by LCMS analysis
- Type: ADME, Microsome
- Measurement Parameters: probe midazolam (1'-hydroxylation)
Experimental Endpoint: IC50

Consider the molecule shown here: CC(C)(C)c1cc(C(=O)Nc2nc(CN)cs2)n(Cc2ccccc2)n1 What is its recorded IC50?
> 30 µM

----------
- System: Liver
- Experiment Description: Metabolic stability in mouse liver microsomes at 1 uM by LC-MS analysis
- Type: ADME, Microsome
Experimental Endpoint: Stability

The following molecules have reported results that may help.
Query (molecule): CC(C)(C)c1cc(C(=O)Nc2cccc(CN)c2)n(Cc2ccccc2)n1 ; field requested: Stability
Stable

Now the same for CNCc1csc(NC(=O)c2cc(C(C)(C)C)nn2Cc2ccccc2)n1
Stable

Try CC(C)(C)c1cc(C(=O)Nc2nc(CO)cs2)n(Cc2ccccc2)n1 next.
Unstable

Quick one: CC(C)(C)c1cc(C(=O)Nc2ccncc2)n(Cc2ccccc2)n1
Unstable

Proceed to CC(C)(C)c1cc(C(=O)Nc2ccccn2)n(Cc2ccccc2)n1
Unstable

New cases:
So what does the record say about Stability for CC(C)(C)c1cc(C(=O)Nc2nc(CNS(C)(=O)=O)cs2)n(Cc2ccccc2)n1 ?
Unstable

Next entry: CC(C)(C)c1cc(C(=O)Nc2cccnc2)n(Cc2ccccc2)n1
Unstable

What do you have for CN(C)Cc1csc(NC(=O)c2cc(C(C)(C)C)nn2Cc2ccccc2)n1 ?
Unstable

Consider next the molecule Cc1csc(NC(=O)c2cc(C(C)(C)C)nn2Cc2ccccc2)n1 in the same way.
Unstable

Then this molecule: CC(=O)NCc1csc(NC(=O)c2cc(C(C)(C)C)nn2Cc2ccccc2)n1
Unstable

And then CC(C)(C)c1cc(C(=O)Nc2ccccc2)n(Cc2ccccc2)n1 , what is it?
Unstable

Same again, this time with CC(C)(C)c1cc(C(=O)Nc2nc(CN)cs2)n(Cc2ccccc2)n1
Stable

----------
- Experiment Description: Lipophilicity, log D of the compound by gradient HPLC at pH 7.4
- Type: physicochemical
- Measurement Parameters: buffer
Label scheme, based on chromatographic logD: LOW (below 1), MID (1 to below 4), HIGH (4 or more)

Into which bin does this compound go? NCc1csc(NC(=O)c2ccccn2)n1
LOW

And what about the compound NCc1csc(NC(=O)c2cccnn2)n1 ?
LOW

NCc1csc(NC(=O)c2cn(Cc3ccccc3)nn2)n1 ?
MID

Here is the next compound: CN(C)Cc1csc(NC(=O)c2cc(C(C)(C)C)nn2Cc2ccccc2)n1
HIGH

Moving on to the next compound: CC(C)(C)c1cc(C(=O)Nc2ccccn2)n(Cc2ccccc2)n1
HIGH

----------
- Experiment Description: AUC (0 to infinity) in Sprague-Dawley rat plasma at 21.8 mg/kg, po by LCMS analysis
- Format: ADME, organism-based
- Parameters: time infinity, dose 21.8 mg/kg, route oral
Experimental Endpoint: AUC(0-inf) (µM·h)
The response must be a number in µM·h with no trailing unit.

# input molecule: CC(C)(C)c1cc(C(=O)Nc2nc(CN)cs2)n(Cc2ccccc2)n1 ; wanted: its AUC(0-inf)
11.8

----------
- Experiment Description: Kinetic solubility of the compound by nephelometry at pH 6.5
- Assay type: physicochemical
- Measurement Parameters: buffer, read-out: Kinetic_solubility
Experimental Endpoint: solubility kinetic (µg/mL)
Provide only the numeric value, understood in µg/mL.

For the compound shown here, CC(C)(C)c1cc(C(=O)Nc2cccc(CN)c2)n(Cc2ccccc2)n1 , give the reported solubility kinetic.
25

How about this compound: CC(C)(C)c1cc(C(=O)Nc2ccccc2)n(Cc2ccccc2)n1
1.6

Next: NCc1csc(NC(=O)c2ccon2)n1
50

# repeat for COc1ccc(C(=O)Nc2nc(CN)cs2)cc1
25

Would you kindly repeat that for NCc1csc(NC(=O)c2cn(Cc3ccccc3)nn2)n1 ?
25

Lookup CC(=O)NCc1csc(NC(=O)c2cc(C(C)(C)C)nn2Cc2ccccc2)n1
12.5

Again, but for NCc1csc(NC(=O)c2ccccc2)n1
25

// same read-out, input: CNCc1csc(NC(=O)c2cc(C(C)(C)C)nn2Cc2ccccc2)n1
12.5

Others:
Any idea what solubility kinetic was measured for NCc1csc(NC(=O)c2cnnn2Cc2ccccc2)n1 ?
50

Try the compound NCc1csc(NC(=O)c2cc3ccccc3o2)n1
50

And for NCc1csc(NC(=O)c2cc3ccccc3n2Cc2ccccc2)n1 ?
1.6

----------
- Experiment Description: Equilibrium solubility of the compound by nephelometry at pH 6.5
- Format: physicochemical
- Measurement Parameters: buffer
Experimental Endpoint: solubility
Record the result as number plus unit.

Item CC(C)(C)c1cc(C(=O)Nc2nc(CN)cs2)n(Cc2ccccc2)n1 has what recorded solubility?
142 µg/mL

----------
- Experiment Description: Cmax in Sprague-Dawley rat plasma at 21.8 mg/kg, po by LCMS analysis
- Assay type: ADME, organism-based
- Set-up: dose 21.8 mg/kg, route oral
Experimental Endpoint: Cmax (nM)
Numbers only; they are read as nM.

Suppose we examine the molecule CC(C)(C)c1cc(C(=O)Nc2nc(CN)cs2)n(Cc2ccccc2)n1 ; what Cmax value has been reported?
1600

----------
- Test System: Cytochrome P450 2C19 (Homo sapiens)
- Sequence (P33261 whole entry): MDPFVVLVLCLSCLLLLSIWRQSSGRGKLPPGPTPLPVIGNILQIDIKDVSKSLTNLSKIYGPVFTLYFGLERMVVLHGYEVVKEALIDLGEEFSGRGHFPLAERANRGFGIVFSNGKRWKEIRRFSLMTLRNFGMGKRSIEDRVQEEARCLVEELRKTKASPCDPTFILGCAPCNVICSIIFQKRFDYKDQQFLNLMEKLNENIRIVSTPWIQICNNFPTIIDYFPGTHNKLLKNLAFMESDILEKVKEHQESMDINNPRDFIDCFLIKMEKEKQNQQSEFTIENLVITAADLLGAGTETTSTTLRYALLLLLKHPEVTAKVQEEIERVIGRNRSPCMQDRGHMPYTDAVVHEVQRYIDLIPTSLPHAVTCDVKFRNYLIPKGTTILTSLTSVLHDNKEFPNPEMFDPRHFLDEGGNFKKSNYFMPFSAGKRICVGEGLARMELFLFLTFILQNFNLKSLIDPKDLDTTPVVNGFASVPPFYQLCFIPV
Experimental Endpoint: IC50 (µM)
Give just the numeric value; µM need not be written.

Requested read-out: IC50. Entry: CC(C)(C)c1cc(C(=O)Nc2nc(CN)cs2)n(Cc2ccccc2)n1
15

----------
- Test System: Cytochrome P450 2D6 (Homo sapiens)
- Sequence (P10635 whole entry): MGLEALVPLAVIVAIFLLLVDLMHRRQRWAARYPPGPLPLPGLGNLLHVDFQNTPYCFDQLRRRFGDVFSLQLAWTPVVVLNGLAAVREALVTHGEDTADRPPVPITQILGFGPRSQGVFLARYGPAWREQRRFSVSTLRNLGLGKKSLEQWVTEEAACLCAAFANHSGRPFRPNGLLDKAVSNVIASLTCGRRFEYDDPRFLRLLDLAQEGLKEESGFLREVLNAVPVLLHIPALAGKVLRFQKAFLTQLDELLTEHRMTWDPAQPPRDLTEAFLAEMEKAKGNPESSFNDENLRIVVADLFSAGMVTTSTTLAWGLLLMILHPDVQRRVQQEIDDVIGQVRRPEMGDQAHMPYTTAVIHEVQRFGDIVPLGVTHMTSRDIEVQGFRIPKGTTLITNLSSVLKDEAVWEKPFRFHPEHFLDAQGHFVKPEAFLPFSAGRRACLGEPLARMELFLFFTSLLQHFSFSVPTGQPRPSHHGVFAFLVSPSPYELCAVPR
Experimental Endpoint: pIC50
Entry type: numeric. Quantity: pIC50, the -log10 of concentration in molar units.

# input compound: CC(C)(C)c1cc(C(=O)Nc2nc(CN)cs2)n(Cc2ccccc2)n1 ; wanted: its pIC50
6.40

----------
- Experiment Description: Apparent half life in Sprague-Dawley rat at 21.8 […], po
- Format: ADME, organism-based
- Measurement Parameters: in vivo, read-out: t1/2(app) (converted)
Experimental Endpoint: half-life (h)
# output: bare number, implied unit h

Recorded half-life of CC(C)(C)c1cc(C(=O)Nc2nc(CN)cs2)n(Cc2ccccc2)n1 , please.
3.1

----------
- Experiment Description: Ratio of drug level in blood to plasma of Sprague-Dawley rat at 4.5 mg/kg, iv
- Type: ADME, organism-based
- Design: dose 4.5 mg/kg, route intravenous
- Measurement Parameters: whole blood and plasma
Experimental Endpoint: blood plasma ratio
# print the numeric value only

Which measured blood plasma ratio value corresponds to CC(C)(C)c1cc(C(=O)Nc2nc(CN)cs2)n(Cc2ccccc2)n1 ?
1.1

----------
- Experiment Description: Plasma protein binding in rat at 200 ng/mL
- Assay type: ADME, cell-free
- Measurement Parameters: read-out: PPB (converted)
Experimental Endpoint: fraction unbound at 200 ng/mL

For the molecule CC(C)(C)c1cc(C(=O)Nc2nc(CN)cs2)n(Cc2ccccc2)n1 , what fraction unbound at 200 ng/mL is on record?
0.029
